molecular target: T1, human ROR2 (receptor tyrosine kinase-like orphan receptor 2) (human, UniProt Q01974 34-403, limits assumed); assay: affinity ELISA on human ROR2, pH 7.4; set-up: unit not given here
T1 construct: Antigen of the ELISA, SPR and pH titration assays; also called hROR2
T1 sequence (Q01974 34-403 limits assumed): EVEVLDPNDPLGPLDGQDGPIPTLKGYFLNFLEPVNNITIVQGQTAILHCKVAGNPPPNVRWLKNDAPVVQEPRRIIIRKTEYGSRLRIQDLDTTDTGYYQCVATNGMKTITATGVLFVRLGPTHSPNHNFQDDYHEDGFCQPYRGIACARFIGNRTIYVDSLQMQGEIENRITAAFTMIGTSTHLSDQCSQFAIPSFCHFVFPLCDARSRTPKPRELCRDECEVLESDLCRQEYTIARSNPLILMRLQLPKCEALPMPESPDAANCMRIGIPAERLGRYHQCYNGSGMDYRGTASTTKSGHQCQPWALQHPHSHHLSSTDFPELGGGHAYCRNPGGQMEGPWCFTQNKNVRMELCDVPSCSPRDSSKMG
observed_property: Affinity ELISA, pH 7.4
Lab note: jot the number down without any unit.

Reference set, count: 3
binder | Affinity ELISA, pH 7.4
HC-T033C (antibody, V domains shown, CPE single point mutant of parent VH 48.6-HC-WT) VH: EVQLQQSGPELVKPGASVKISCKTSGYTFTEYCMHWMKQSHRKSLEWIGGINTNNGGTGYNQKFKGKATLTVDKSSSTAYMELRSLTSEDSAVYFCARGSLYSYGNSYFDYWGQGTLVTVSS VL: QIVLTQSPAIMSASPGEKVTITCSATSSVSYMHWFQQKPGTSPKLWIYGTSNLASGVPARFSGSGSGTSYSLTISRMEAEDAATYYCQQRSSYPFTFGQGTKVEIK | 0.232
HC-M034D (antibody, V domains shown, CPE single point mutant of parent VH 48.6-HC-WT) VH: EVQLQQSGPELVKPGASVKISCKTSGYTFTEYTDHWMKQSHRKSLEWIGGINTNNGGTGYNQKFKGKATLTVDKSSSTAYMELRSLTSEDSAVYFCARGSLYSYGNSYFDYWGQGTLVTVSS VL: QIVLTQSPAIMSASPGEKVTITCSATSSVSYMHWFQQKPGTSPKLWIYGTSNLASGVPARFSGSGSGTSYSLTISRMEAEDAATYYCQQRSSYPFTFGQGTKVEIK | 0.211
HC-A097M (antibody, V domains shown, CPE single point mutant of parent VH 48.6-HC-WT) VH: EVQLQQSGPELVKPGASVKISCKTSGYTFTEYTMHWMKQSHRKSLEWIGGINTNNGGTGYNQKFKGKATLTVDKSSSTAYMELRSLTSEDSAVYFCMRGSLYSYGNSYFDYWGQGTLVTVSS VL: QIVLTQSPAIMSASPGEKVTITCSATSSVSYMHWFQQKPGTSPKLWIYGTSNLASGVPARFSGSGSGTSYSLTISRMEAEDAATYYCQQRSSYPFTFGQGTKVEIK | 1.7

Lookup: Find the recorded Affinity ELISA, pH 7.4 belonging to HC-S103G (antibody, V domains shown, CPE single point mutant of parent VH 48.6-HC-WT) VH: EVQLQQSGPELVKPGASVKISCKTSGYTFTEYTMHWMKQSHRKSLEWIGGINTNNGGTGYNQKFKGKATLTVDKSSSTAYMELRSLTSEDSAVYFCARGSLYGYGNSYFDYWGQGTLVTVSS VL: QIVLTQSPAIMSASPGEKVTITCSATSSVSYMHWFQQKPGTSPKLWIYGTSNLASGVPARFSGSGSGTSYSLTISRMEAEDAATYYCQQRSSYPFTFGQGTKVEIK and report it.
Found: 0.655

Lookup: Ok, now HC-R098H (antibody, V domains shown, CPE single point mutant of parent VH 48.6-HC-WT) VH: EVQLQQSGPELVKPGASVKISCKTSGYTFTEYTMHWMKQSHRKSLEWIGGINTNNGGTGYNQKFKGKATLTVDKSSSTAYMELRSLTSEDSAVYFCAHGSLYSYGNSYFDYWGQGTLVTVSS VL: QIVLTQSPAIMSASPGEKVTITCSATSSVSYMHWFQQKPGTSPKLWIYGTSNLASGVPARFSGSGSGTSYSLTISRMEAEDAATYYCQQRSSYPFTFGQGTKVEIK
Found: 0.353

Lookup: Next entry: HC-N052C (antibody, V domains shown, CPE single point mutant of parent VH 48.6-HC-WT) VH: EVQLQQSGPELVKPGASVKISCKTSGYTFTEYTMHWMKQSHRKSLEWIGGICTNNGGTGYNQKFKGKATLTVDKSSSTAYMELRSLTSEDSAVYFCARGSLYSYGNSYFDYWGQGTLVTVSS VL: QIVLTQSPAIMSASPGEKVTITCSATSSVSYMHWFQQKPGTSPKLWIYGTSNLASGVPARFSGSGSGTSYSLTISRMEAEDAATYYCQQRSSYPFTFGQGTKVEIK
Found: 0.431

Lookup: Again, but for HC-G105D (antibody, V domains shown, CPE single point mutant of parent VH 48.6-HC-WT) VH: EVQLQQSGPELVKPGASVKISCKTSGYTFTEYTMHWMKQSHRKSLEWIGGINTNNGGTGYNQKFKGKATLTVDKSSSTAYMELRSLTSEDSAVYFCARGSLYSYDNSYFDYWGQGTLVTVSS VL: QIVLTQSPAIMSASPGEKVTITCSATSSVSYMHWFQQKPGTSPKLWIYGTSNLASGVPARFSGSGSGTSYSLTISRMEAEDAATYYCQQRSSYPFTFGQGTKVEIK
Found: 0.379

Lookup: Also check HC-L101F (antibody, V domains shown, CPE single point mutant of parent VH 48.6-HC-WT) VH: EVQLQQSGPELVKPGASVKISCKTSGYTFTEYTMHWMKQSHRKSLEWIGGINTNNGGTGYNQKFKGKATLTVDKSSSTAYMELRSLTSEDSAVYFCARGSFYSYGNSYFDYWGQGTLVTVSS VL: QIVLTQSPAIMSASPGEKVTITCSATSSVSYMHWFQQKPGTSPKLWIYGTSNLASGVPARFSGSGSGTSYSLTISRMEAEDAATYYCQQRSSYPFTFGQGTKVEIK
Found: 1.41

Lookup: Next up: HC-Y032D (antibody, V domains shown, CPE single point mutant of parent VH 48.6-HC-WT) VH: EVQLQQSGPELVKPGASVKISCKTSGYTFTEDTMHWMKQSHRKSLEWIGGINTNNGGTGYNQKFKGKATLTVDKSSSTAYMELRSLTSEDSAVYFCARGSLYSYGNSYFDYWGQGTLVTVSS VL: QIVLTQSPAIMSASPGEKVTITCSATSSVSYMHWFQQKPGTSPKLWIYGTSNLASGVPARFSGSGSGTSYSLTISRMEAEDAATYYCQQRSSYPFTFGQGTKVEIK
Found: 0.51

Lookup: Moving on to HC-T053D (antibody, V domains shown, CPE single point mutant of parent VH 48.6-HC-WT) VH: EVQLQQSGPELVKPGASVKISCKTSGYTFTEYTMHWMKQSHRKSLEWIGGINDNNGGTGYNQKFKGKATLTVDKSSSTAYMELRSLTSEDSAVYFCARGSLYSYGNSYFDYWGQGTLVTVSS VL: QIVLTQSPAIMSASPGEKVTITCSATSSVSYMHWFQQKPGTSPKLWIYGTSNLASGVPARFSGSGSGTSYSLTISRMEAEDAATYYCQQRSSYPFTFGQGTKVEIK
Found: 0.222
